B1: TCAP (parent)
chain: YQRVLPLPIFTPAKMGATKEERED

Variants of: B1
EXPERIMENT_SUMMARY: protein stability index of a GFP-peptide fusion (GPS, HEK-293T) (PSI 1-6); higher = more stable;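 also: lentivirally expressed fusions sorted by FACS into six bins by GFP to DsRed ratio, PSI derived from sequencing read proportions per bin multiplied by bin number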
CONDITION_DETAILS: c terminus: a fixed tail appended
MEASURED_ENDPOINT: protein stability index
# output: bare number, no unit

Would you please look over these solved cases?
>>> print(df.to_string())
   variant_descriptor        measured_endpoint   val
0                T18H  protein stability index  1.95
1                M15T  protein stability index  2.05
2                 V4I  protein stability index  2.07
3                 L5N  protein stability index   1.8
4                A13M  protein stability index  2.31
5                 P8W  protein stability index  2.73

QUERY: # query: protein stability index of entry P8N
RESULT: 2.11

QUERY: Looking for the measured protein stability index of R3K , can you help?
RESULT: 2.5

QUERY: // protein stability index lookup, key: M15P
RESULT: 2.69
